- method_description: total protein half-life in vivo (active degradation + dilution); higher = more stable protein
- measurement_parameters: E. coli NCM3722 delta-hslV; growth: N-lim chemostat; doubling time 6 h
reported_endpoint: total protein half-life in vivo (h)
Only the number, expressed in h, is required.

Answered cases to consult:
MQKVVLATGNVGKVRELASLLSDFGLDIVAQTDLGVDSAEETGLTFIENAILKARHAAKVTALPAIADDSGLAVDVLGGAPGIYSARYSGEDATDQKNLQKLLETMKDVPDDQRQARFHCVLVYLRHAEDPTPLVCHGSWPGVITREPAGTGGFGYDPIFFVPSEGKTAAELTREEKSAISHRGQALKLLLDALRNG = 4.12
MNMKLKTLFAAAFAVVGFCSTASAVTYPLPTDGSRLVGQNQVITIPEGNTQPLEYFAAEYQMGLSNMMEANPGVDTFLPKGGTVLNIPQQLILPDTVHEGIVINSAEMRLYYYPKGTNTVIVLPIGIGQLGKDTPINWTTKVERKKAGPTWTPTAKMHAEYRAAGEPLPAVVPAGPDNPMGLYALYIGRLYAIHGTNANFGIGLRVSHGCVRLRNEDIKFLFEKVPVGTRVQFIDEPVKATTEPDGSRYIEVHNPLSTTEAQFEGQEIVPITLTKSVQTVTGQPDVDQVVLDEAIKNRSGMPVRLN [P0AAX8] = 6.22
MNRIEHYHDWLRDAHAMEKQAESMLESMASRIDNYPELRARIEQHLSETKNQIVQLETILDRNDISRSVIKDSMSKMAALGQSIGGIFPSDEIVKGSISGYVFEQFEIACYTSLLAAAKNAGDTASIPTIEAILNEEKQMADWLIQNIPQTTEKFLIRSETDGVEAKK = 6.68
MNYEIKQEEKRTVAGFHLVGPWEQTVKKGFEQLMMWVDSKNIVPKEWVAVYYDNPDETPAEKLRCDTVVTVPGYFTLPENSEGVILTEITGGQYAVAVARVVGDDFAKPWYQFFNSLLQDSAYEMLPKPCFEVYLNNGAEDGYWDIEMYVAVQPKHH = 3.39
MNKRDAINHIRQFGGRLDRFRKSVGGSGDGGRNAPKRAKSSPKPVNRKTNVFNEQVRYAFHGALQDLKSKPFATFLTVMVIAISLTLPSVCYMVYKNVNQAATQYYPSPQITVYLQKTLDDDAAAGVVAQLQAEQGVEKVNYLSREDALGEFRNWSGFGGALDMLEENPLPAVAVVIPKLDFQGTESLNTLRDRITQINGIDEVRMDDSWFARLAALTGLVGRVSAMIGVLMVAAVFLVIGNSVRLSIFARRDSINVQKLIGATDGFILRPFLYGGALLGFSGALLSLILSEILVLRLSSAVAEVAQVFGTKFDINGLSFDECLLLLLVCSMIGWVAAWLATVQHLRHFTPE [P0AC30] = 6.04

# context switch: different sequence, same total protein half-life in vivo
Answer with the recorded total protein half-life in vivo of MAVQKNVIKGILAGTFALMLSGCVTVPDAIKGSSPTPQQDLVRVMSAPQLYVGQEARFGGKVVAVQNQQGKTRLEIATVPLDSGARPTLGEPSRGRIYADVNGFLDPVDFRGQLVTVVGPITGAVDGKIGNTPYKFMVMQVTGYKRWHLTQQVIMPPQPIDPWFYGGRGWPYGYGGWGWYNPGPARVQTVVTE [P0AA91] only.
6.13
